Ref: a melting point compilation (Tetko et al.; mined from patent text by program, amines drawn as free bases though some values may be those of a salt)

assay readout: melting point

Examples with answers:
compound: CC(C)(C)OC(=O)Oc1ccc(C(C(=O)OC(c2ccccc2)c2ccccc2)N2CC(NC(=O)OCc3ccccc3)C2=O)cc1 (stereo not drawn)
melting point: 153 to 154 °C

compound: CCCCN(CCCC)C(=O)CC1C(=O)N(c2ccc(Cl)cc2)C(=O)N1c1ccc(Cl)cc1 (stereo not drawn)
melting point: 124 °C

compound: COc1cccc(C2CC(=O)N(c3ccnc(NC(=O)NCc4ccccn4)c3)C2)c1 (stereo not drawn)
melting point: 189 to 190 °C

Query (compound): O=c1[nH]nc2c3c(cccc13)Oc1ccc(COCCP(=O)(OCc3ccccc3)OCc3ccccc3)cc1-2 ; field requested: melting point 173 to 175 °C

Query (compound): CCCOc1cc(C)c(C(=O)O)c(OCc2ccc(OCCc3nc(-c4ccccc4)oc3C)cc2)c1 ; field requested: melting point 50 to 52 °C

Query (compound): O=C(ON1C(=O)CCC1=O)c1ccco1 ; field requested: melting point 126 to 127 °C

Query (compound): CC(C)(C)c1ccc(C(=O)CCCCCc2ccccc2)cc1NC(=O)CC1c2ccccc2Oc2ccccc21 ; field requested: melting point 119 to 120 °C

Query (compound): COC(=O)c1cc(-n2cccc2)ccc1C ; field requested: melting point 56 to 57 °C
